- Test system: HCV replicon (BB7 sequence) in Huh-7-Clone A cells
- protocol-details: HCV replicon assay: ELISA of NS5A protein in replicon-containing cells (Inhibition of Viral RNA Replication)
- Assay type: cell-based
- experimental-setup: Hepatitis C virus; HCV replicon assay; ranges of EC50; read-out: Replicon
parameter: EC50

Answered examples (3):
# molecule, EC50
measured = [
    ("CNC(=O)c1c(-c2ccc(F)cc2)oc2cc(N(Cc3cc(C)on3)S(C)(=O)=O)c(OC(C)C)cc12", "< 1000 nM"),
    ("CNC(=O)c1c(-c2ccc(F)cc2)oc2cc(-c3c(C)n[nH]c3C)c(OC)cc12", "< 1000 nM"),
    ("CNC(=O)c1c(-c2ccc(F)cc2)oc2cc(N(C)S(C)(=O)=O)c(OCc3nsc(NCC4CC4)n3)cc12", "< 1000 nM"),
]

Query: Report EC50 for `CNC(=O)c1c(-c2ccc(F)cc2)oc2ccc(OCc3cccc(C(=O)OC)c3)cc12` please.
Response: > 30000 nM

Query: Another molecule: `CNC(=O)c1c(-c2ccc(F)cc2)oc2cc(N3CCOCC3)c(OCC(C)(C)O)cc12`
Response: < 10000 nM

Query: Another molecule: CNC(=O)c1c(-c2ccc(F)cc2)oc2cc(N3CCOCC3)c(OC(C)c3nccs3)cc12 (centres unmarked)
Response: < 1000 nM

Query: Another molecule: `CNC(=O)c1c(-c2ccc(F)cc2)oc2cc(-c3c(COC)noc3C)c(OC)cc12`
Response: < 1000 nM

Query: Another molecule: `CCc1cc2c(C(=O)NC)c(-c3ccc(F)cc3)oc2cc1N(CCF)S(C)(=O)=O`
Response: < 1000 nM

---

- tested-on: HCV NS5B (Hepatitis C virus genotype 1b, UniProt Q9WMX2)
- Construct: fusion protein, of which the carboxyl terminal 21 amino acids were removed to enhance its solubility; His tag (GSHHHHHH); made in house; host or cells: E. coli
- protocol-details: Inhibition of viral RNA-dependent RNA polymerase (RdRp), in vitro biochemical assay
- Parameters: species or system HCV genotype 1b virus (BB7)
- experimental-setup: purified His-tagged NS5B (BB7), carboxyl terminal 21 amino acids removed; read-out: HCV pol-BB7 IC50
parameter: IC50

# compound, IC50
records = [
    ("CNC(=O)c1c(-c2ccc(F)cc2)oc2cc(Br)c(OC)cc12 [Example 13]", "≤ 0.5 µM"),
    ("CNC(=O)c1c(-c2ccccc2)oc2ccc(C)cc12 [Example 9]", "0.5 to 5 µM"),
    ("CNC(=O)c1c(-c2ccccc2)oc2ccc(COC)cc12 [Example 78]", "0.5 to 5 µM"),
    ("CNC(=O)c1c(-c2ccc(F)cc2)oc2cc(-c3nocc3CCO)c(OC)cc12 [Example 41]", "≤ 0.5 µM"),
]

Query: Tell me reported IC50 for CNC(=O)c1c(-c2ccccc2Cl)oc2ccc(OC)cc12 [Example 66] , tested with HCV NS5B (Hepatitis C virus genotype 1b, UniProt Q9WMX2).
Response: 5 to 30 µM

---

Catalogue of molecules with associated IC50
- tested-on: HCV NS5B (Hepatitis C virus genotype 1b)
- Construct: fusion protein, of which the carboxyl terminal 21 amino acids were removed to enhance its solubility; His tag (GSHHHHHH); made in house; host or cells: E. coli
- protocol-details: Inhibition of viral RNA-dependent RNA polymerase (RdRp), in vitro biochemical assay
- Parameters: species or system HCV genotype 1b virus (BB7)
- experimental-setup: HCV NS5B RdRp, BB7; reported as range class; read-out: HCV pol-BB7 IC50
- Experimental: The HCV NS5B-directed RdRp activity was established and characterized in a standard in vitro biochemical assay using a purified HCV NS5B protein derived from the consensus sequence of a patient infected with HCV genotype 1b virus (BB7). […] In addition to evaluating their activity in the replicon assay, representative compounds within the scope of the present invention, as shown in examples 1-453 of Table 1, were also evaluated for antiviral activity using this assay. […]

Answered examples (7):
# molecule, parameter, result
rows = [
    ("CNC(=O)c1c(-c2ccc(F)cc2)oc2cc(N3CCOCC3)c(OCc3csc(C)n3)cc12 [Example 201]", "IC50", "≤ 0.5 µM"),
    ("CNC(=O)c1c(-c2ccc(F)cc2)oc2cc(OCc3ccccc3)c(OCc3ccccc3)cc12 [Example 183]", "IC50", "> 30 µM"),
    ("CNC(=O)c1c(-c2ccc(F)cc2)oc2cc(C(C)=O)c(OC(C)C)cc12 [Example 196]", "IC50", "≤ 0.5 µM"),
    ("CC(C)NC(=O)c1c(-c2ccc(F)cc2)oc2cc(NS(C)(=O)=O)c(OC(C)C)cc12 [Example 197]", "IC50", "5 to 30 µM"),
    ("CNC(=O)c1c(-c2ccc(F)cc2)oc2cc(N3CCOCC3)c(OCc3noc(-c4c(C)noc4C)n3)cc12 [Example 203]", "IC50", "0.5 to 5 µM"),
    ("CNC(=O)c1c(-c2ccc(F)cc2)oc2cc(N(CC(=O)O)S(C)(=O)=O)c(OC(C)C)cc12 [Example 189]", "IC50", "0.5 to 5 µM"),
    ("CNC(=O)c1c(-c2ccc(F)cc2)oc2cc(N3CCOCC3)c(OCC(C)=O)cc12 [Example 215]", "IC50", "0.5 to 5 µM"),
]

Here is another molecule to look at.
Query: Tell me reported IC50 for CNC(=O)c1c(-c2ccc(F)cc2)oc2cc(OCc3ccccc3)c(OC(C)C)cc12 [Example 194] , tested with HCV NS5B (Hepatitis C virus genotype 1b).
Response: 0.5 to 5 µM
